These entries and their values trace back to patent US11724980B2.

- testMethodNotes: physchem
- Format: physicochemical
- conditionLabel: pH 12, aqueous buffer, thermodynamic from solid
resultType: solubility (mM)
Give the value, in units of mM, as a plain number.

solubility for O=C1c2ccc(O)cc2C(=O)c2ccc(O)cc21 [2,6-DHAQ, 2,6-dihydroxyanthraquinone] is 100

* * *

- testMethodNotes: physchem
- Format: physicochemical
- conditionLabel: pH 14, aqueous buffer, thermodynamic from solid, KOH, pH 14; read-out: Maximum Solubility
resultType: solubility

solubility for `O=C([O-])CCCOc1ccc2c(c1)C(=O)c1ccc(OCCCC(=O)[O-])cc1C2=O.[K+].[K+]` is > 1000 mM

* * *

- testMethodNotes: physchem
- Assay type: physicochemical
- conditionLabel: pH 12, aqueous buffer, thermodynamic from solid, KOH, pH 12; read-out: Maximum Solubility
resultType: solubility

solubility for O=C([O-])CCCOc1ccc2c(c1)C(=O)c1ccc(OCCCC(=O)[O-])cc1C2=O.[K+].[K+] [2,6-DBEAQ] is > 500 mM
